Where do the numbers come from? From patent US12617779B2.

Test Name: Evaluation of conversion rate to active form in buffer solution (Experimental Example 1)
Format: physicochemical
Condition Context: pH7.4, 1 hr
Listed here: items and their measured Residual rate.
Your answer is read as %, so omit the unit and give the number.

input: Provide one value: measured Residual rate of CN1CC[C@H](c2c(O)cc(O)c3c(=O)cc(-c4ccccc4Cl)oc23)[C@H](OC(=O)CN)C1 [Comparative Example 8, reference compound]
output: 52.4

input: Fill in reported Residual rate for this entry: CNC(=O)O[C@@H]1CN(C)CC[C@@H]1c1c(O)cc(O)c2c(=O)cc(-c3ccccc3Cl)oc12 [Comparative Example 5, reference compound]
output: 93.9

input: Give the reported value of Residual rate for this record: CCNC(=O)O[C@@H]1CN(C)CC[C@@H]1c1c(O)cc(O)c2c(=O)cc(-c3ccccc3Cl)oc12 [Comparative Example 4, reference compound]
output: 97.7

input: Answer with reported Residual rate of CC(C)[C@H](N)C(=O)O[C@@H]1CN(C)CC[C@@H]1c1c(O)cc(O)c2c(=O)cc(-c3ccccc3Cl)oc12 [Comparative Example 10, reference compound]
output: 89.3

input: Identify the reported Residual rate for the following entry. CN1CC[C@H](c2c(O)cc(O)c3c(=O)cc(-c4ccccc4Cl)oc23)[C@H](OC(=O)c2ccccc2F)C1 [Comparative Example 12]
output: 97.6

input: Given the compound C[C@H](N)C(=O)O[C@@H]1CN(C)CC[C@@H]1c1c(O)cc(O)c2c(=O)cc(-c3ccccc3Cl)oc12 [Comparative Example 7, reference compound] , write its reported Residual rate.
output: 36.3

input: Hello, please tell me recorded Residual rate for this one: CN1CC[C@H](c2c(OC(=O)N(C)CCN)cc(O)c3c(=O)cc(-c4ccccc4Cl)oc23)[C@H](O)C1 [Comparative Example 13, reference compound]
output: 0.0

input: Identify measured Residual rate associated with CCOC(=O)O[C@@H]1CN(C)CC[C@@H]1c1c(O)cc(O)c2c(=O)cc(-c3ccccc3Cl)oc12 [Comparative Example 3, reference compound]
output: 91.0

input: Indicate its recorded Residual rate; the compound in question is CNCCN(C)C(=O)Oc1cc(O)c2c(=O)cc(-c3ccccc3Cl)oc2c1[C@H]1CCN(C)C[C@H]1O [Comparative Example 14, reference compound]
output: 0.0

input: // Input: CNC(=O)Oc1cc(O)c2c(=O)cc(-c3ccccc3Cl)oc2c1[C@H]1CCN(C)C[C@H]1O [Comparative Example 2, reference compound] . Output its Residual rate only.
output: 0.0

---

// values below are reported Production rate of Alvocidib
Test Name: Evaluation of conversion rate to active form in buffer solution (Experimental Example 1)
Format: physicochemical
Condition Context: pH7.0, 1 hr
Use % as the unit, but write only the number.

For orientation, consider the following solved cases.
CNC(=O)Oc1cc(O)c2c(=O)cc(-c3ccccc3Cl)oc2c1[C@H]1CCN(C)C[C@H]1O [Comparative Example 2, reference compound] :: 98.3
CNCCN(C)C(=O)Oc1cc(O)c2c(=O)cc(-c3ccccc3Cl)oc2c1[C@H]1CCN(C)C[C@H]1O [Comparative Example 14, reference compound] :: 96.8
CN1CC[C@H](c2c(O)cc(O)c3c(=O)cc(-c4ccccc4Cl)oc23)[C@H](OC(=O)CN)C1 [Comparative Example 8, reference compound] :: 49.3

# next molecule below
input: Complete the entry with Production rate of Alvocidib for CN1CC[C@H](c2c(O)cc(O)c3c(=O)cc(-c4ccccc4Cl)oc23)[C@H](OC(=O)[C@@H](N)CO)C1 [Comparative Example 9, reference compound]
output: 30.7
